Counter-ions that a name gives are not always drawn.
readout.name: melting point

• CNC(=S)N1N=C(c2ccc(N)cc2)c2cc(OC)c(OC)cc2CC1C (racemic) = 235 to 237 °C
• COc1cc2c(cc1OC)C(c1cccc(Cl)c1)=NN(c1nc(C)c(C)s1)C(C)C2 (centres unmarked) (as salt: HCl) = 174 to 176 °C
• COc1cc2c(cc1OC)C(c1cccc(Cl)c1)=NN(c1nncs1)C(C)C2 (centres unmarked) = 86 to 88 °C
• CNC(=O)N1N=C(c2ccccc2[N+](=O)[O-])c2cc(OC)c(OC)cc2CC1C (centres unmarked) = 174 to 176 °C
• CNC(=O)Nc1ccc(C2=NN(c3nncs3)C(C)Cc3cc(OC)c(OC)cc32)cc1 (centres unmarked) = 160 to 162 °C
• CCCNC(=O)N1N=C(c2ccc(N)c(C)c2)c2cc(OC)c(OC)cc2C[C@H]1C = 92 to 95 °C
• COc1cc2c(cc1OC)C(c1ccc([N+](=O)[O-])cc1)=NN(c1nc(C)c(C)s1)C(C)C2 (centres unmarked) [Example 8] = 192 to 193 °C
• CNC(=O)N1N=C(c2cc(C)c([N+](=O)[O-])c(C)c2)c2cc(OC)c(OC)cc2CC1C (centres unmarked) = 158 to 160 °C
• CONC(=O)N1N=C(c2ccc(N)cc2)c2cc(OC)c(OC)cc2CC1C (racemic) = 173 to 174 °C
• COc1cc2c(cc1OC)C(c1ccc(N)c(C)c1)=NN(c1noc(C)n1)[C@H](C)C2 = 105 to 108 °C
• COc1cc2c(cc1OC)C(c1ccc(N)c(C)c1)=NN(c1ncon1)C(C)C2 (racemic) = 234 to 237 °C
• COc1cc2c(cc1OC)C(c1ccc(N)cc1)=NN(C1=NCCO1)C(C)C2 (racemic) = 135 to 137 °C
• COc1cc2c(cc1OC)C(c1ccc(N)cc1)=NN(c1ncn[nH]1)C(C)C2 (racemic) = 152 to 155 °C
• COc1cc2c(cc1OC)C(c1ccc(N)cc1)=NN(c1nc(C)n[nH]1)C(C)C2 (racemic) = 164 to 167 °C
• COc1cc2c(cc1OC)C(c1ccc(N)c(Cl)c1)=NN(C1=NCCS1)[C@H](C)C2 = 232 to 234 °C
• COc1cc2c(cc1OC)C(c1ccc(N)cc1)=NN(c1nc(C)c(C)s1)[C@H](C)C2 = 122 to 124 °C
• COc1cc2c(cc1OC)C(c1ccc([N+](=O)[O-])cc1)=NN(c1ncon1)C(C)C2 (centres unmarked) [Example 40] = 213 to 214 °C
• COc1cc2c(cc1OC)C(c1ccc([N+](=O)[O-])cc1)=NN(c1nnc(C)o1)C(C)C2 (centres unmarked) = 177 to 178 °C
• COc1cc2c(cc1OC)C(c1ccc(N)cc1)=NN(c1nncs1)[C@@H](C)C2 = 160 to 162 °C
• CCOc1cc2c(cc1OCC)C(c1ccc([N+](=O)[O-])cc1)=NN(c1ncon1)C(C)C2 (centres unmarked) = 158 to 162 °C
• CNC(=O)N1N=C(c2ccc(N)c(Cl)c2)c2cc(OC)c(OC)cc2CC1C (racemic) = 119 to 120 °C
• COc1cc2c(cc1OC)C(c1ccc([N+](=O)[O-])c(Cl)c1)=NN(c1nccs1)C(C)C2 (centres unmarked) = 168 to 169 °C
• COc1cc2c(cc1OC)C(c1ccc(NC(C)=O)c(Cl)c1)=NN(c1nccs1)[C@H](C)C2 = 213 to 215 °C
• CONC(=O)N1N=C(c2ccc(N)cc2)c2cc(OC)c(OC)cc2C[C@H]1C = 143 to 145 °C
• CCOc1cc2c(cc1OCC)C(c1ccc([N+](=O)[O-])cc1)=NN(c1nncs1)C(C)C2 (centres unmarked) = 172 to 174 °C
• COc1cc2c(cc1OC)C(c1ccc([N+](=O)[O-])c(C)c1)=NN(c1nncs1)C(C)C2 (centres unmarked) [Example 19] = 195 to 196 °C
• CNC(=O)N1N=C(c2ccc([N+](=O)[O-])c(Cl)c2)c2cc(OC)c(OC)cc2CC1C (centres unmarked) [75] = 194 to 195 °C
• COc1cc2c(cc1OC)C(c1ccc(N)cc1)=NN(c1nc(C)c(C)s1)C(C)C2 (racemic) = 121 to 124 °C
• COc1cc2c(cc1OC)C(c1ccccc1)=NN(c1ncon1)C(C)C2 (centres unmarked) = 215 to 216 °C
• COc1cc2c(cc1OC)C(c1ccc(N)cc1)=NN(c1ncc(C)s1)C(C)C2 (racemic) = 120 to 122 °C
• CCCCNC(=O)N1N=C(c2ccc(N)cc2)c2cc(OC)c(OC)cc2CC1C (racemic) = 204 to 207 °C
• COc1cc2c(cc1OC)C(c1ccc([N+](=O)[O-])cc1)=NN(c1nccs1)C(C)C2 (centres unmarked) [Example 1] = 195 to 197 °C
